Biological target: xanthine oxidase (Homo sapiens, UniProt P47989)
Sequence (P47989 whole entry, species assumed): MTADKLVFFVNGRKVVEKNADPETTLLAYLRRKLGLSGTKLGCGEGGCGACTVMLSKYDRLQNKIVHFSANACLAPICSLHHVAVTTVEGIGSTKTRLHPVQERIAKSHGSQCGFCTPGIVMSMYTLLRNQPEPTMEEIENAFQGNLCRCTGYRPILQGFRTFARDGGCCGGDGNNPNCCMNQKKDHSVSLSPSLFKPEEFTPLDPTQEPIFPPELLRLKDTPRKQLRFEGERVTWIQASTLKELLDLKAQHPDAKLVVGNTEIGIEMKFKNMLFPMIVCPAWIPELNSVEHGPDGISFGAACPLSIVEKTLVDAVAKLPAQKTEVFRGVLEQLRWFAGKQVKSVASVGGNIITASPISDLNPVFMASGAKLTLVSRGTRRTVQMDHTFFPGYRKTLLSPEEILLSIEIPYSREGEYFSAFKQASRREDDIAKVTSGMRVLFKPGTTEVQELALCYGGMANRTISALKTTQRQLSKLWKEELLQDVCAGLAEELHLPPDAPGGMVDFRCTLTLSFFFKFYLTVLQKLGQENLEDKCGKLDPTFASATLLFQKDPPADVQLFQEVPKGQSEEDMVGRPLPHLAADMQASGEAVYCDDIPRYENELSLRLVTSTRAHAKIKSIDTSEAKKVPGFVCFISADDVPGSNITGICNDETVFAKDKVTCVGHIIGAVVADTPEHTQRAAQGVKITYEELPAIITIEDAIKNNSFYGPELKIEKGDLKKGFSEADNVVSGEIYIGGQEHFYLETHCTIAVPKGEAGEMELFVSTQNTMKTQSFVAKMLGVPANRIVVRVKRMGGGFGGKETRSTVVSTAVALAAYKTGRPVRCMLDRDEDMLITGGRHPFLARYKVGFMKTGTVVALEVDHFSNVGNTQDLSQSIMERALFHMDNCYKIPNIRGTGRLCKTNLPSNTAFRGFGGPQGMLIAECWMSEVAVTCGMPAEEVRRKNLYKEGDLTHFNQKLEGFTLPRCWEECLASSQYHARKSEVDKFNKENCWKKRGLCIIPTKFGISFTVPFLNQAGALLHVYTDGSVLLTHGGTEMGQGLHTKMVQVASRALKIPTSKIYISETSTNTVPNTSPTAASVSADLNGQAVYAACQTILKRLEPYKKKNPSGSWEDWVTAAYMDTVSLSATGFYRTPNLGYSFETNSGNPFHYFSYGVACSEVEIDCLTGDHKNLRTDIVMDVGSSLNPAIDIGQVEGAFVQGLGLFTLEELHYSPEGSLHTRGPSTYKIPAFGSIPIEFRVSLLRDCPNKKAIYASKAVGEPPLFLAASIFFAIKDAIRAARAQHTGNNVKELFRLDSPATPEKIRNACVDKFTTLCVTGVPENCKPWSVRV
pIC50: −log10 of the molar value.
metric: pIC50

Lookup: Tell us which pIC50 value is on record for `O=C(O)c1cc2c([nH]c3ccccc32)c(-c2ccc(CO)o2)n1`
Found: ~1.49
